These measurements were taken from patent US7534809B2.

- Measurement Target: HIV reverse transcriptase K103N (Human immunodeficiency virus type 1 group M subtype B, UniProt P03366, K702N)
- Assay Details: Enzyme assay, reverse transcriptase K103N
Result Type: log10 IC50 (log10 of the value in µM)

- CCOP(=O)(c1cc(C)cc(C)c1)c1c(C(N)=O)[nH]c2ccc(Cl)cc12 (stereo not shown) [Compound 6b]: 0.42
- COP(=O)(c1ccccc1)c1c(C(=O)NCc2ccncc2)[nH]c2ccc(Cl)cc12 (stereo not shown) [Compound 18ar]: -0.03
- CCOP(=O)(c1ccccc1F)c1c(C(N)=O)[nH]c2ccc(Cl)cc12 (stereo not shown) [Compound 6ad]: 0.52
- CCOP(=O)(c1cc(C)cc(C)c1)c1c(C(=O)NCc2ccncc2)[nH]c2ccc(Cl)cc12 (stereo not shown) [Compound 9a]: 0.53
- COP(=O)(c1ccccc1)c1c(C(N)=O)[nH]c2ccccc12 (stereo not shown) [Compound 7ai]: 0.82
- CCOP(=O)(c1cc(F)cc(F)c1)c1c(C(N)=O)[nH]c2ccc(Cl)cc12 (stereo not shown) [Compound 6ac]: 1.10
- CCOP(=O)(c1ccccc1)c1c(C(N)=O)[nH]c2ccc(Cl)cc12 (stereo not shown) [Compound 6a]: 0.21
- COP(=O)(c1ccccc1)c1c(C(N)=O)[nH]c2ccc(Cl)cc12 (stereo not shown) [Compound 7ah]: -0.41

* * *

- Tested on: HIV BH-10 WT
- Assay Details: Cell-based assay using BH-10 cells, wild type
- Condition Summary: Human immunodeficiency virus 1, read-out: EC50 WT///B, BH-10 cells, wild type
pEC50: −log10 of the molar value.
Result Type: pEC50

• CCc1cccc(P(=O)(OC)c2c(C(N)=O)[nH]c3ccc(Cl)cc23)c1 (centres unmarked) = 9.22
• CCCc1cccc(P(=O)(OC)c2c(C(N)=O)[nH]c3ccc(Cl)cc23)c1 (centres unmarked) = 8.52
• COP(=O)(c1ccsc1)c1c(C(N)=O)[nH]c2ccc(Cl)cc12 (centres unmarked) [Compound 52a] = 9.30
• CCOP(=O)(c1cccc(C)c1)c1c(C(N)=O)[nH]c2ccc(Cl)cc12 (centres unmarked) = 9.30
• COP(=O)(c1ccccc1)c1c(C(N)=O)[nH]c2ccc(Cl)cc12 (centres unmarked) = 9.40
• CCOP(=O)(c1cccc(C(C)C)c1)c1c(C(N)=O)[nH]c2ccc(Cl)cc12 (centres unmarked) = 8.92
• COP(=O)(c1cc(C)cc(C)c1)c1c(C(=O)NCc2cncn2C)[nH]c2ccc(Cl)cc12 (centres unmarked) = 8.49
• COP(=O)(c1ccccc1)c1c(C(=O)NCc2ccco2)[nH]c2ccc(Cl)cc12 (centres unmarked) [Compound 18at] = 8.74
• COP(=O)(c1cc(F)cc(F)c1)c1c(C(=O)NCC#N)[nH]c2ccc(Cl)cc12 (centres unmarked) [Compound 59a] = 8.85
• COP(=O)(c1cccc(C(C)C)c1)c1c(C(=O)NCc2ccncc2)[nH]c2ccc(Cl)cc12 (centres unmarked) [Compound 18aq] = 7.92
• COP(=O)(c1cc(C)cc(C#N)c1)c1c(C(=O)NCc2cc[n+]([O-])cc2)[nH]c2ccc(Cl)cc12 (centres unmarked) [Compound 22ak] = 8.15
• COP(=O)(c1cc(F)cc(F)c1)c1c(C(=O)NCc2cncn2C)[nH]c2ccc(Cl)cc12 (centres unmarked) = 8.59
• COP(=O)(c1cc(C)cc(C)c1)c1c(C(=O)NCc2ccccc2C(F)(F)F)[nH]c2ccc(Cl)cc12 (centres unmarked) = 7.52
• COP(=O)(c1ccccc1)c1c(C(=O)NCc2cncn2C)[nH]c2ccc(Cl)cc12 (centres unmarked) [Compound 18as] = 9.52
• COP(=O)(c1cccc(COCc2ccccc2)c1)c1c(C(N)=O)[nH]c2ccc(Cl)cc12 (centres unmarked) = 6.82
• COP(=O)(c1ccccc1)c1c(C(=O)N[C@H](C(N)=O)c2ccccc2)[nH]c2ccc(Cl)cc12 (some centres unmarked) = 7.42
• CCOP(=O)(c1cccc(Cl)c1)c1c(C(N)=O)[nH]c2ccc(Cl)cc12 (centres unmarked) = 8.85
• COc1cccc(P(=O)(OC)c2c(C(N)=O)[nH]c3ccc(Cl)cc23)c1 (centres unmarked) = 9.22
• CCOP(=O)(c1cccc(CC)c1)c1c(C(N)=O)[nH]c2ccc(Cl)cc12 (centres unmarked) = 8.70
• COP(=O)(c1cccc(C)c1)c1c(C(=O)NCc2ccncc2)[nH]c2ccc(Cl)cc12 (centres unmarked) [Compound 18a] = 9.00
• COP(=O)(c1cc(Cl)cc(Cl)c1)c1c(C(N)=O)[nH]c2ccc(Cl)cc12 (centres unmarked) = 8.92
• COP(=O)(c1cccc(CF)c1)c1c(C(=O)NCc2ccncc2)[nH]c2ccc(Cl)cc12 (centres unmarked) [Compound 18c] = 8.70
• COP(=O)(c1ccccc1)c1c(C(=O)NCc2ccccc2F)[nH]c2ccc(Cl)cc12 (centres unmarked) = 8.42
• COP(=O)(c1cccs1)c1c(C(N)=O)[nH]c2ccc(Cl)cc12 (centres unmarked) [Compound 52b] = 9.30
• COP(=O)(c1cccc(C(C)C)c1)c1c(C(N)=O)[nH]c2ccc(Cl)cc12 (centres unmarked) = 8.60
• COP(=O)(c1cc(C)cc(C)c1)c1c(C(N)=O)[nH]c2ccc(Cl)cc12 (centres unmarked) = 9.70
• C=Cc1cccc(P(=O)(OC)c2c(C(N)=O)[nH]c3ccc(Cl)cc23)c1 (centres unmarked) = 8.14
• CCc1ccccc1P(=O)(OC)c1c(C(N)=O)[nH]c2ccc(Cl)cc12 (centres unmarked) = 8.54
• CP(=O)(c1ccccc1)c1c(C(N)=O)[nH]c2ccc(Cl)cc12 (centres unmarked) [Compound 29a] = 9.10
• COP(=O)(c1cc(F)cc(Cl)c1)c1c(C(N)=O)[nH]c2ccc(Cl)cc12 (centres unmarked) = 9.10
• COP(=O)(c1cc(C)cc(C)c1)c1c(C(=O)NCCc2ccncc2)[nH]c2ccc(Cl)cc12 (centres unmarked) [Compound 18g] = 7.94

* * *

- Tested on: HIV BH-10 WT
- Assay Details: Cell-based assay using BH-10 cells, wild type
- Condition Summary: Human immunodeficiency virus 1, read-out: EC50 WT///B, BH-10 cells, wild type
Result Type: EC50 (nM)

• COP(=O)(c1ccc(F)cc1)c1c(C(N)=O)[nH]c2ccc(Cl)cc12 (stereo not shown) [Compound 7ak] = 5.5
• COP(=O)(c1cc(C)cc(C#N)c1)c1c(C(N)=O)[nH]c2ccc(Cl)cc12 (stereo not shown) [Compound 7as] = 1.4
• COP(=O)(c1cc(C)cc(C)c1)c1c(C(=O)NCN2CCOCC2)[nH]c2ccc(Cl)cc12 (stereo not shown) [Compound 18ay] = 3.5
• COc1cccc(P(=O)(OC)c2c(C(=O)NCc3ccco3)[nH]c3ccc(Cl)cc23)c1 (stereo not shown) [Compound 18au] = 0.8
• COP(=O)(c1cc(F)cc(Br)c1)c1c(C(N)=O)[nH]c2ccc(Cl)cc12 (stereo not shown) [Compound 7j] = 1.8
• CCOP(=O)(c1cc(F)cc(F)c1)c1c(C(N)=O)[nH]c2ccc(Cl)cc12 (stereo not shown) [Compound 6ac] = 3.7
• COP(=O)(c1cc(F)cc(F)c1)c1c(C(N)=O)[nH]c2ccc(Cl)cc12 (stereo not shown) [Compound 7aj] = 0.6
• COP(=O)(c1cccc(CO)c1)c1c(C(N)=O)[nH]c2ccc(Cl)cc12 (stereo not shown) [Compound 7aq] = 2.5
• COP(=O)(c1cc(C)cc(C)c1)c1c(C(=O)NCc2ccncn2)[nH]c2ccc(Cl)cc12 (stereo not shown) [Compound 18l] = 1.7
• CCc1cc(C)cc(P(=O)(OC)c2c(C(N)=O)[nH]c3ccc(Cl)cc23)c1 (stereo not shown) [Compound 7w] = 0.4
• COP(=O)(c1cc(C)cc(C)c1)c1c(C(=O)NCc2cccnc2)[nH]c2ccc(Cl)cc12 (stereo not shown) [Compound 18f] = 2.3
• CCOP(=O)(c1ccccc1F)c1c(C(N)=O)[nH]c2ccc(Cl)cc12 (stereo not shown) [Compound 6ad] = 0.9
• CCOP(=O)(c1ccc(C)cc1)c1c(C(N)=O)[nH]c2ccc(Cl)cc12 (stereo not shown) [Compound 6w] = 7.2
• CCc1cccc(P(=O)(OC)c2c(C(=O)NCc3ccncc3)[nH]c3ccc(Cl)cc23)c1 (stereo not shown) [Compound 18ap] = 5.8
• COP(=O)(c1cc(C)cc(C)c1)c1c(C(=O)NCc2ccccc2F)[nH]c2ccc(Cl)cc12 (stereo not shown) [Compound 18az] = 3
• COP(=O)(c1cc(C)cc(C)c1)c1c(C(=O)NCCc2cc[n+]([O-])cc2)[nH]c2ccc(Cl)cc12 (stereo not shown) [Compound 22c] = 2.8

* * *

A short record of IC50 observed with HIV reverse transcriptase WT (Human immunodeficiency virus type 1 group M subtype B) follows.
Result Type: IC50

• COP(=O)(c1ccccc1)c1c(C(N)=O)[nH]c2ccccc12 (centres unmarked) = 0.393 µM
• CCOP(=O)(c1cc(C)cc(C)c1)c1c(C(=O)NCc2ccncc2)[nH]c2ccc(Cl)cc12 (centres unmarked) = 3.41 µM
• CCOP(=O)(c1ccc(F)cc1)c1c(C(N)=O)[nH]c2ccc(Cl)cc12 (centres unmarked) = 3.62 µM
• NC(=O)c1[nH]c2ccc(Cl)cc2c1P(=O)(O)c1ccccc1 [Compound 60a] = > 5 µM
• CCOP(=O)(c1ccccc1F)c1c(C(N)=O)[nH]c2ccc(Cl)cc12 (centres unmarked) = 0.433 µM
• CP(=O)(c1ccccc1)c1c(C(N)=O)[nH]c2ccc(Cl)cc12 (centres unmarked) [Compound 29a] = 0.233 µM
• CCOP(=O)(c1cc(C)cc(C)c1)c1c(C(N)=O)[nH]c2ccc(Cl)cc12 (centres unmarked) = 1.64 µM
• CCOP(=O)(c1cc(F)cc(F)c1)c1c(C(N)=O)[nH]c2ccc(Cl)cc12 (centres unmarked) = 0.726 µM
